B1: POMT2 (parent)
chain: LRGGGQVLLGWTLHYFPFFLMGRV

variants of: B1; assay: protein stability index of a GFP-peptide fusion (GPS, HEK-293T) (PSI 1-6); higher = more stable; settings: c terminus: a fixed tail appended;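 also: lentivirally expressed fusions sorted by FACS into six bins by GFP to DsRed ratio, PSI derived from sequencing read proportions per bin multiplied by bin number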
VALUE_KIND: protein stability index

* LQGGGQVLLGWTLHYFPFFLMGRV | 1.79
* LRGGGQVLLGRTLHYFPFFLMGRV | 2.67
* RRGGGQVLLGWTLHYFPFFLMGRV | 3.02
* LRGGGPVLLGWTLHYFPFFLMGRV | 3.06
* LRGGGQVLLGWTLHYFPFFLMQRV | 1.28
* LRGGGQVLLGWTLHWFPFFLMGRV | 2.28
* LRGGGQVLLGATLHYFPFFLMGRV | 1.93
* LRGGGQVLLGWTLHYFDFFLMGRV | 4.4
* LRGHGQVLLGWTLHYFPFFLMGRV | 3.5
* LRGGGQVLFGWTLHYFPFFLMGRV | 2.91
* GRGGGQVLLGWTLHYFPFFLMGRV | 2.56
